Tested on: NCI-H226 lung
Test: NCI tumour cell line growth inhibition, 48 h
Catalogue of GI50 readings, one per entry.

Tell me the measured GI50 of "NC(=O)c1cc([N+](=O)[O-])c(Cl)c([N+](=O)[O-])c1" , please. 1680 nM

Let us now turn to "C[C@]12CC[C@@H]3c4ccc(O)cc4CC[C@H]3[C@@H]1CC[C@@H]2NS(=O)(=O)c1cccc(C(F)(F)F)c1" 3880 nM

====

System: MALME-3M melanoma
Test: NCI tumour cell line growth inhibition, 48 h
measured.endpoint: TGI

Here's what some known entries look like.
O/N=C/c1cc2c(cc1Br)OCO2	> 100 µM
COc1cccc(Nc2nc(-c3cccs3)nc3ccc(Br)cc23)c1	> 100 µM
O=c1c(Sc2c(O)c3ccccc3c3ccccc3c2=O)c(O)c2ccccc2c2ccccc12	> 100 µM

Below: the item to evaluate.
Tell me the measured TGI of "Cn1ccnc1C(=O)/C=C/c1ccc(CC(=O)Nc2ccc(S(F)(F)(F)(F)F)cc2)cc1" , please. 6.65 µM

====

Catalogue of TGI readings, one per entry.
System: 786-0 renal
Assay: NCI tumour cell line growth inhibition, 48 h

CCOC(=O)C1=C(NNC(=O)Cc2ccccc2)CSC1=Nc1ccccc1	> 100 µM
Cc1nc2cnc3cc(F)c(-c4ccc(Oc5ncccn5)cc4Cl)cc3c2n1[C@H]1CCN(C(=O)CO)C[C@@H]1F	> 100 µM

Below: the item to evaluate.
Tell me the measured TGI of C=CCOC1=C(OCC=C)C(C2COC(C)(C)O2)OC1=O (stereo not drawn) , please. > 100 µM

====

System: RXF 393 renal
Experiment: NCI tumour cell line growth inhibition, 48 h
measured.endpoint: TGI

COc1cc(Cl)cc(N(O)C(C)=O)c1OCc1ccccc1	> 100 µM
COc1ccc(N=Nc2ccc3oc(=O)c(C(=O)Nc4ccccc4)cc3c2)cc1	> 10 µM
Cn1c(=O)c(Oc2ccc(F)cc2F)cc2cnc(NC(CO)CO)nc21	> 25 µM
Fc1cccc2cc3ccc4cccc5ccc(c12)c3c45	> 100 µM

Below: the item to evaluate.
Lab note: need TGI with RXF 393 renal for entry "N#Cc1c(-c2ccc(Cl)cc2)c(C#N)c(=O)n(NS(=O)(=O)c2ccccc2)c1S" , please look it up. > 100 µM

====

System: SF-539 CNS
Experiment: NCI tumour cell line growth inhibition, 48 h
measured.endpoint: TGI

COc1cc(Cl)cc(N(O)C(C)=O)c1OCc1ccccc1	> 100 µM
CC(O)(/C=C/c1ccccc1)P(=O)(O)c1ccccc1 (stereo unspecified)	> 100 µM
CCN(CC)CCC1CCCCN1CC(=O)N1c2ccccc2NC(=O)c2ccccc21 (stereo unspecified)	> 100 µM

Tell me the measured TGI of "Nc1ccc2nc3ccc(N)cc3[n+](-c3ccccc3)c2c1" , please. > 100 µM

Let us now turn to "O=C(O)CCSCCCN1C(=O)c2ccccc2C1=O" > 100 µM

Let us now turn to Cc1nn(C(=O)c2ccncc2)c2c1C(c1ccc(Cl)cc1)SC(N)=N2 (stereo unspecified) > 10 µM

====

System: NCI-H522 lung
Experiment: NCI tumour cell line growth inhibition, 48 h
Catalogue of TGI readings, one per entry.

Here's what some known entries look like.
N#Cc1cccc(C(=O)Nc2cccc(NC(=O)c3cccc(C#N)c3)c2)c1	> 100 µM
CC1=C(O)C(=O)C[C@]2(C)[C@H]3CC=C4[C@@H]5CC(C)(C)CC[C@@H]5C(=O)[C@H](O)[C@@]4(C)[C@]3(C)CC[C@@H]12	> 50 µM
COc1cc2nc(-c3cccs3)nc(N3C(c4ccc(O)cc4)=NNC(=O)c4ccccc43)c2cc1OC	> 100 µM

Tell me the measured TGI of "O/N=C/c1cc2c(cc1Br)OCO2" , please. > 100 µM

Let us now turn to CCCCCCCCC(=O)N(C)C1C2CN3CCC(O2)C13 (configuration not stated) > 100 µM

Let us now turn to CCO[C@@H]1CCC(S(=O)c2ccc(C)cc2)=CO1 (some centres not stated) > 100 µM

Let us now turn to "Cc1ccc2cc3c(ccc4ccccc43)c3c2c1CC3" > 100 µM

Let us now turn to "CCOC(=O)C1=C(NNC(=O)Cc2ccccc2)CSC1=Nc1ccccc1" > 100 µM

Let us now turn to "COc1cc(-c2c(C#N)c(N)c(C#N)c3c2COc2ccccc2-3)cc(OC)c1OC" > 100 µM

Let us now turn to CCOP(=O)(OCC)C(Nc1cccc([N+](=O)[O-])c1)c1ccccc1 (configuration not stated) > 100 µM

Let us now turn to "COc1ccc(N(C)Sc2ccccc2)cc1" > 100 µM

Let us now turn to "Fc1cccc2cc3ccc4cccc5ccc(c12)c3c45" > 100 µM

====

Tested on: SN12C renal
Test: NCI tumour cell line growth inhibition, 48 h
Catalogue of TGI readings, one per entry.

Here's what some known entries look like.
CCN(CC)CCC1CCCCN1CC(=O)N1c2ccccc2NC(=O)c2ccccc21 (centres undefined)	> 100 µM
CN(CC(=O)O)c1ccc(/C=C/c2ccnc3ccccc23)cc1	92.8 µM
O=C1NCCCC12CCCNC2=O	> 100 µM
COc1cc(-c2c(C#N)c(N)c(C#N)c3c2COc2ccccc2-3)cc(OC)c1OC	> 84.4 µM
CC(=O)NCCSC(=O)c1ccccc1	0.492 µM

Tell me the measured TGI of O=C(Cc1ccccc1)NN1C(=O)C(Cl)C1c1ccc([N+](=O)[O-])cc1 (centres undefined) , please. > 100 µM

Let us now turn to "COc1ccc(C(=O)/C=C/c2c(C(F)(F)F)nc3sccn23)cc1OC" > 100 µM

Let us now turn to CC(/C(=N/NC(=O)C(N)=O)c1c(Cl)ccc(Cl)c1O)C1(O)C(=O)Nc2ccccc21 (centres undefined) > 100 µM

Let us now turn to "C/C(=N\NC(=S)NC1CCCC1)c1ccccn1" > 100 µM

Let us now turn to COc1ccccc1N1C(Cl)C(=O)C1c1c[nH]c2ccccc12 (centres undefined) > 100 µM

====

Test system: A498 renal
Experiment: NCI tumour cell line growth inhibition, 48 h; in the data active = GI50 below about 0.43 µM; inactive = the rest
The reply should name one outcome from active, inactive

These solved cases illustrate the format of a correct answer.
COc1ccc2c(c1)c(-c1nc(-c3c[nH]c4ncccc34)cs1)cn2CCCCN1CCOCC1	active
Cc1ccc(/C=C2/SC(Nc3nc(-c4nc(NC5=NC(=O)/C(=C\c6ccc(C)cc6)S5)sc4C)c(C)s3)=NC2=O)cc1	inactive
Cc1nn(-c2ccccc2)c2c1CC(=O)Nc1ccccc1-2	active
COc1ccc(C(=O)/C=C/c2c(C(F)(F)F)nc3sccn23)cc1OC	inactive
O=C(/C=C/c1cccs1)c1ccc(Nc2nc(Nc3ccc(F)cc3)nc(Nc3ccc(F)cc3)n2)cc1	inactive
CC(CN1CCN(C)CC1)CN1c2ccccc2Sc2ccc(C(F)(F)F)cc21 (stereo not drawn)	inactive
CN(C)c1ccc(-c2cc(-c3ccc(Nc4nc(Nc5ccccc5)nc(Nc5ccc(Cl)cc5)n4)cc3)nc(N)n2)cc1	inactive

# outcome recorded in this test, key = "Cn1ccc2c(c1=O)C(=O)c1nccc3c1c-2nc1ccccc13" inactive

====

Test system: SK-MEL-28 melanoma
Assay: NCI tumour cell line growth inhibition, 48 h
measured.endpoint: log10 TGI (log10 of the value in µM)
Short version: log10 scale, TGI, µM.

Here's what some known entries look like.
CCCc1c(O)c(=O)c2c(OC)cc(OC)c3c4c(OC)cc(OC)c5c(=O)c(O)c(CCC)c(c1c23)c54	1.28
C=C(C(=O)O)C1CCC(CC/C=C(\C)CC/C=C(\C)CCC=C(C)C)CO1 (stereo not given)	1.47
NC1=C(Br)C(=O)c2ncccc2C1=O	0.10
CC(CN1CCN(C)CC1)CN1c2ccccc2Sc2ccc(C(F)(F)F)cc21 (stereo not given)	0.53
CCCCCCCCCCCCCCCC[N+](C)(C)CCN(Cc1ccc(OC)cc1)c1ncccn1	0.65
O=C1/C(=C/c2ccc3c(c2)OCO3)CCC1CN1CCOCC1 (stereo not given)	1.02

Below: the item to evaluate.
Lab note: need log10 TGI with SK-MEL-28 melanoma for entry "Cc1nc(Nc2ccc(F)cc2)c2sc(=S)n(-c3ccc(F)cc3)c2n1" , please look it up. 1.44

====

Test system: SR leukemia
Experiment: NCI tumour cell line growth inhibition, 48 h
Catalogue of TGI readings, one per entry.

Here's what some known entries look like.
CC(=O)Nc1ccccc1C=C1c2ccccc2-c2ccccc21	> 100 µM
CS(=O)(=O)OCCn1cnc2nc(NC(=O)c3ccccc3)[nH]c(=O)c21	> 100 µM
C[C@H]1[C@H](C)CC[C@]2(C(=O)N3CCN(C)CC3)CC[C@]3(C)C(=CC[C@@H]4[C@@]5(C)C/C(=C/c6cccnc6)C(=O)C(C)(C)[C@@H]5CC[C@]43C)[C@H]12	> 100 µM
CN(C(=O)c1ccc(Cl)cc1)C(=S)N1CCN(c2ccccn2)CC1	> 100 µM
CC(=O)CCC(=O)C(=[N+]=[N-])S(=O)(=O)c1ccccc1	> 100 µM
COc1ccc2oc(=O)cc(C)c2c1	> 100 µM
COc1cc(Cn2c(=S)ss/c2=N\C(=S)N(C)C)cc(OC)c1OC	> 61.2 µM
CC(=O)O[C@@H]1[C@H]2[C@@H](OC(=O)c3ccccc3)[C@@H](C)C[C@]2(O)[C@H](OC(C)=O)[C@@]2(C)[C@@H]3CC(C)(C)C(=O)[C@]3(OC(C)=O)C[C@@]12C	> 25 µM
CC1(C)C2CCC(N)(C2)C1N (centres undefined)	> 100 µM
CCOP(=O)(OCC)C(Nc1cccc([N+](=O)[O-])c1)c1ccccc1 (centres undefined)	> 100 µM

Lab note: need TGI with SR leukemia for entry "COc1ccc(-c2nnc(SCC(=O)Nc3ccc(/C(C)=N\O)cc3)n2-c2ccccc2)cc1OC" , please look it up. > 100 µM

Let us now turn to "COc1ccc(C(=O)/C=C/c2c(C(F)(F)F)nc3sccn23)cc1OC" > 100 µM

Let us now turn to "CCn1c2ccccc2c2ccc3c(c21)C(=O)c1ccccc1C3=O" > 100 µM

Let us now turn to "Cc1cnc(/N=c2\sc(C)cn2-c2ncc(C)s2)s1" > 100 µM

The origin of these recorded values is PubChem BioAssay (NCI).
